Source of measurements: paper PMC7145699

Molecular target: T1, WER 12-130 (WER-R2R3) (Arabidopsis, UniProt Q9SEI0 12-130)
T1 sequence: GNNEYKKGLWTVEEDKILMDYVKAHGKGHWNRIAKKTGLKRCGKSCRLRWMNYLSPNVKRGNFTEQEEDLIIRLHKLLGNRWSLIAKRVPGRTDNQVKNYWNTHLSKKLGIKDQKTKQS
Assay: ITC; ITC: 150 mM NaCl, 20 mM HEPES pH 7.5, 25 C, 400 uM protein into 20 uM DNA; EMSA: 150 mM NaCl, 20 mM Tris-HCl pH 8.0, on ice 1 h, 0.1 uM DNA, 6% native PAGE 0.5x TBE
Conditions: protein: recombinant; tags: 6xHis-SUMO removed by Ulp1; blunt
Exercise: state measured pKd for each of the binders provided.
// field semantics: pKd = negative decimal log of concentration (mol/L)

Query block: Entry A12:T11* (dsDNA) DNA 1: AAATTCTCCAAACGCATTTTC DNA 2: GAAAATGCGTTTGGAGAATTT has what pKd?
Result block: 5.59

Query block: Entry C10:G13* (dsDNA) DNA 1: AAATTCTCCCACCGCATTTTC DNA 2: GAAAATGCGGTGGGAGAATTT : reported pKd = ?
Result block: 5.70

Query block: Given 5mC12 DNA (AA5mC) (dsDNA, 5mC at C12 of strand 1) DNA 1: AAATTCTCCAACCGCATTTTC DNA 2: GAAAATGCGGTTGGAGAATTT , state its recorded pKd.
Result block: 5.63
